assay-system: Cytochrome P450 2C19 (Homo sapiens)
Sequence (P33261 whole entry): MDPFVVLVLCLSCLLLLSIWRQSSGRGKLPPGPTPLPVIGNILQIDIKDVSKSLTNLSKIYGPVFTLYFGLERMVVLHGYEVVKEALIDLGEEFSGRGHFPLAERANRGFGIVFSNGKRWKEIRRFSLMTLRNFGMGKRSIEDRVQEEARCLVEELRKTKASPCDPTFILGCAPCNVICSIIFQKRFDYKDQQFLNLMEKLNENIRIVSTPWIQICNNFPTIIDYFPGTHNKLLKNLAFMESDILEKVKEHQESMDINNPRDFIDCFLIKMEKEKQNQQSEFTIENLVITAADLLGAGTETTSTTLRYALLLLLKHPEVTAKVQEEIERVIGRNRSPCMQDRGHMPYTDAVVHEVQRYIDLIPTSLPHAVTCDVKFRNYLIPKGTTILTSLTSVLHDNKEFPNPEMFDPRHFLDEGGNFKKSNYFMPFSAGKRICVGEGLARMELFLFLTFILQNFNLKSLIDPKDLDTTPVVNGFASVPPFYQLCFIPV
Please go through the items and note down their IC50.
One number for each entry, in µM.

molecule	units-symbol	reported-result
OC(Cn1cnnn1)(c1ccc(F)cc1F)C(F)(F)c1ccc(-c2ccc(OCC(F)(F)F)cc2)cn1 (racemic)	µM	8.5

q: Given O=c1n(-c2ccc(C(F)(F)C(O)(Cn3cnnn3)c3ccc(F)cc3F)nc2)cnn1C1CCCC1 (configuration not stated) , state its recorded IC50.
a: 17

* * *

Please go through the items and note down their log10(MIC80).
Test system: Cryptococcus neoformans
experiment-summary: Antifungal activity against Cryptococcus neoformans after 72 hrs by serial dilution method
Assay type: functional
Parameter value (number): base-10 log of MIC80 in µg/mL.

Below, 10 compounds whose answers are already recorded.
compound	assay-system	log10(MIC80)
CC(O)Cn1ncn(-c2ccc(C(F)(F)C(O)(Cn3cnnn3)c3ccc(F)cc3F)nc2)c1=O (centres undefined)	Cryptococcus neoformans	0.90
O=c1n(-c2ccc(C(F)(F)C(O)(Cn3cnnn3)c3ccc(F)cc3F)nc2)cnn1C1CCCCC1 (centres undefined)	Cryptococcus neoformans	-0.90
O=c1n(-c2ccc(C(F)(F)C(O)(Cn3cnnn3)c3ccc(F)cc3F)nc2)cnn1C1CC=CCC1 (centres undefined)	Cryptococcus neoformans	0.00
CCC(CC)n1ncn(-c2ccc(C(F)(F)C(O)(Cn3cnnn3)c3ccc(F)cc3F)nc2)c1=O (centres undefined)	Cryptococcus neoformans	0.60
O=c1n(-c2ccc(C(F)(F)C(O)(Cn3cnnn3)c3ccc(F)cc3F)nc2)cnn1Cc1ccc(F)cc1 (centres undefined)	Cryptococcus neoformans	0.30
O=c1n(-c2ccc(C(F)(F)C(O)(Cn3cnnn3)c3ccc(F)cc3F)nc2)cnn1C1CCC(F)(F)CC1 (centres undefined)	Cryptococcus neoformans	-0.30
CSc1ccc(Cn2ncn(-c3ccc(C(F)(F)C(O)(Cn4cnnn4)c4ccc(F)cc4F)nc3)c2=O)cc1 (centres undefined)	Cryptococcus neoformans	0.30
CC1(C)CCC(n2ncn(-c3ccc(C(F)(F)C(O)(Cn4cnnn4)c4ccc(F)cc4F)nc3)c2=O)CC1 (centres undefined)	Cryptococcus neoformans	0.60
O=c1n(-c2ccc(C(F)(F)C(O)(Cn3cnnn3)c3ccc(F)cc3F)nc2)cnn1Cc1ccccc1 (centres undefined)	Cryptococcus neoformans	0.60
N#Cc1ccc(Cn2ncn(-c3ccc(C(F)(F)C(O)(Cn4cnnn4)c4ccc(F)cc4F)nc3)c2=O)cc1 (centres undefined)	Cryptococcus neoformans	0.60

Give log10(MIC80) for each of the items listed below.
1. CC(C)C1CCC(n2ncn(-c3ccc(C(F)(F)C(O)(Cn4cnnn4)c4ccc(F)cc4F)nc3)c2=O)CC1 (centres undefined)
2. O=c1n(-c2ccc(C(F)(F)C(O)(Cn3cnnn3)c3ccc(F)cc3F)nc2)cnn1Cc1ccc(Cl)cc1 (centres undefined)
3. O=c1n(-c2ccc(C(F)(F)C(O)(Cn3cnnn3)c3ccc(F)cc3F)nc2)cnn1C1CCCCCCC1 (centres undefined)
4. O=c1n(-c2ccc(C(F)(F)C(O)(Cn3cnnn3)c3ccc(F)cc3F)nc2)cnn1C1CCCCCC1 (centres undefined)
5. CC(C)n1ncn(-c2ccc(C(F)(F)C(O)(Cn3cnnn3)c3ccc(F)cc3F)nc2)c1=O (centres undefined)
6. O=c1n(-c2ccc(C(F)(F)C(O)(Cn3cnnn3)c3ccc(F)cc3F)nc2)cnn1CCC1CCCCC1 (centres undefined)

a:
1. 1.20
2. 0.00
3. 0.30
4. -0.30
5. 0.90
6. 0.60

Give log10(MIC80) for each of the items listed below.
1. COC1CCC(n2ncn(-c3ccc(C(F)(F)C(O)(Cn4cnnn4)c4ccc(F)cc4F)nc3)c2=O)CC1 (centres undefined)
2. COCCOc1ccc(Cn2ncn(-c3ccc(C(F)(F)C(O)(Cn4cnnn4)c4ccc(F)cc4F)nc3)c2=O)cc1 (centres undefined)
3. COc1ccc(Cn2ncn(-c3ccc(C(F)(F)C(O)(Cn4cnnn4)c4ccc(F)cc4F)nc3)c2=O)cc1 (centres undefined)
4. CCC(C)n1ncn(-c2ccc(C(F)(F)C(O)(Cn3cnnn3)c3ccc(F)cc3F)nc2)c1=O (centres undefined)
5. O=c1n(-c2ccc(C(F)(F)C(O)(Cn3cnnn3)c3ccc(F)cc3F)nc2)cnn1Cc1ccncc1 (centres undefined)
6. OC(Cn1cnnn1)(c1ccc(F)cc1F)C(F)(F)c1ccc(-c2ccc(OCC(F)(F)F)cc2)cn1 (racemic)
7. O=c1n(-c2ccc(C(F)(F)C(O)(Cn3cnnn3)c3ccc(F)cc3F)nc2)cnn1C1CCC1 (centres undefined)

a:
1. 0.00
2. -0.30
3. 0.30
4. 0.60
5. 0.30
6. 0.00
7. -0.30

Give log10(MIC80) for each of the items listed below.
1. O=c1n(-c2ccc(C(F)(F)C(O)(Cn3cnnn3)c3ccc(F)cc3F)nc2)cnn1Cc1ccc(C(F)(F)F)cc1 (centres undefined)
2. CC(C)(C)Cn1ncn(-c2ccc(C(F)(F)C(O)(Cn3cnnn3)c3ccc(F)cc3F)nc2)c1=O (centres undefined)

a:
[0.60, -0.30]

Give log10(MIC80) for each of the items listed below.
1. O=c1n(-c2ccc(C(F)(F)C(O)(Cn3cnnn3)c3ccc(F)cc3F)nc2)cnn1C1CCCC1 (centres undefined)
2. O=c1n(-c2ccc(C(F)(F)C(O)(Cn3cnnn3)c3ccc(F)cc3F)nc2)cnn1CC1CCCCC1 (centres undefined)

a:
0.00
0.00

* * *

Please go through the items and note down their MIC80.
Test system: Aspergillus fumigatus
experiment-summary: Antifungal activity against Aspergillus fumigatus after 48 hrs by serial dilution method
Type: functional

compound	reported-result
O=c1n(-c2ccc(C(F)(F)C(O)(Cn3cnnn3)c3ccc(F)cc3F)nc2)cnn1C1CCCCCCC1 (stereo not given)	> 64 µg/mL
O=c1n(-c2ccc(C(F)(F)C(O)(Cn3cnnn3)c3ccc(F)cc3F)nc2)cnn1Cc1ccncc1 (stereo not given)	> 64 µg/mL
CC(C)C1CCC(n2ncn(-c3ccc(C(F)(F)C(O)(Cn4cnnn4)c4ccc(F)cc4F)nc3)c2=O)CC1 (stereo not given)	> 64 µg/mL
O=C1CCCCC1n1ncn(-c2ccc(C(F)(F)C(O)(Cn3cnnn3)c3ccc(F)cc3F)nc2)c1=O (stereo not given)	> 8 µg/mL

Moving on to another compound below.
q: Given CC(C)(C)Cn1ncn(-c2ccc(C(F)(F)C(O)(Cn3cnnn3)c3ccc(F)cc3F)nc2)c1=O (stereo not given) , state its recorded MIC80.
a: > 64 µg/mL

* * *

Test system: Aspergillus fumigatus
experiment-summary: Antifungal activity against Aspergillus fumigatus after 48 hrs by serial dilution method
Assay type: functional
property: MIC80

Below, 7 compounds whose answers are already recorded.
compound	reported-result
COCCOc1ccc(Cn2ncn(-c3ccc(C(F)(F)C(O)(Cn4cnnn4)c4ccc(F)cc4F)nc3)c2=O)cc1 (stereo not drawn)	> 64 µg/mL
COC1CCC(n2ncn(-c3ccc(C(F)(F)C(O)(Cn4cnnn4)c4ccc(F)cc4F)nc3)c2=O)CC1 (stereo not drawn)	> 64 µg/mL
O=c1n(-c2ccc(C(F)(F)C(O)(Cn3cnnn3)c3ccc(F)cc3F)nc2)cnn1C1CCCCCC1 (stereo not drawn)	> 64 µg/mL
N#Cc1ccc(Cn2ncn(-c3ccc(C(F)(F)C(O)(Cn4cnnn4)c4ccc(F)cc4F)nc3)c2=O)cc1 (stereo not drawn)	> 8 µg/mL
O=c1n(-c2ccc(C(F)(F)C(O)(Cn3cnnn3)c3ccc(F)cc3F)nc2)cnn1Cc1ccc(OC(F)(F)F)cc1 (stereo not drawn)	> 8 µg/mL
CC(C)n1ncn(-c2ccc(C(F)(F)C(O)(Cn3cnnn3)c3ccc(F)cc3F)nc2)c1=O (stereo not drawn)	> 8 µg/mL
O=c1n(-c2ccc(C(F)(F)C(O)(Cn3cnnn3)c3ccc(F)cc3F)nc2)cnn1C1CCCC1 (stereo not drawn)	> 8 µg/mL

q: Given CS(=O)(=O)c1ccc(Cn2ncn(-c3ccc(C(F)(F)C(O)(Cn4cnnn4)c4ccc(F)cc4F)nc3)c2=O)cc1 (stereo not drawn) , state its recorded MIC80.
a: > 64 µg/mL

* * *

Tested on: Candida parapsilosis
experiment-summary: Antifungal activity against Candida parapsilosis ATCC 22019 after 24 hrs by serial dilution method
Type: functional
condition-context: Lodderomyces parapsilosis, ATCC 22019, 24 h
property: MIC80

Give MIC80 for each of the items listed below.
1. CSc1ccc(Cn2ncn(-c3ccc(C(F)(F)C(O)(Cn4cnnn4)c4ccc(F)cc4F)nc3)c2=O)cc1 (configuration not stated)
2. O=c1n(-c2ccc(C(F)(F)C(O)(Cn3cnnn3)c3ccc(F)cc3F)nc2)cnn1Cc1cccnc1 (configuration not stated)
3. CC(C)C1CCC(n2ncn(-c3ccc(C(F)(F)C(O)(Cn4cnnn4)c4ccc(F)cc4F)nc3)c2=O)CC1 (configuration not stated)
4. O=c1n(-c2ccc(C(F)(F)C(O)(Cn3cnnn3)c3ccc(F)cc3F)nc2)cnn1C1CCCCC1 (configuration not stated)
5. O=c1n(-c2ccc(C(F)(F)C(O)(Cn3cnnn3)c3ccc(F)cc3F)nc2)cnn1CC#CCO (configuration not stated)
6. O=c1n(-c2ccc(C(F)(F)C(O)(Cn3cnnn3)c3ccc(F)cc3F)nc2)cnn1C1CCCCCC1 (configuration not stated)
7. OC(Cn1cnnn1)(c1ccc(F)cc1F)C(F)(F)c1ccc(-c2ccc(OCC(F)(F)F)cc2)cn1 (racemic)
8. CC(O)(CO)Cn1ncn(-c2ccc(C(F)(F)C(O)(Cn3cnnn3)c3ccc(F)cc3F)nc2)c1=O (configuration not stated)

a:
4 µg/mL
8 µg/mL
16 µg/mL
0.25 µg/mL
4 µg/mL
0.5 µg/mL
0.5 µg/mL
> 8 µg/mL

Data credit: ChEMBL document CHEMBL4184109
